molecular target: NUDT7 (Homo sapiens); construct: residues 14-235, E. coli, pNIC28-Bsa4, N-terminal His6 tag removed by TEV, construct 26672 Da; design: Intact protein LC/MS covalent labelling, fragments in pools of five, 200 uM each, 4 °C; conditions: 24 h, 4 °C, pool of five; 200 µM; covalent
Sequence (P0C024 14-235): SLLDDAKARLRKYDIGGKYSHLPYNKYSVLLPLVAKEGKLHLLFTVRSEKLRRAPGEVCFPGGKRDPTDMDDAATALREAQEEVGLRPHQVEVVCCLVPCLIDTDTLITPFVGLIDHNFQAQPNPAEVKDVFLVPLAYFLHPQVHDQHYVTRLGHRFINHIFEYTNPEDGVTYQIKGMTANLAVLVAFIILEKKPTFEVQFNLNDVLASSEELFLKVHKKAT
Listed here are compounds together with their documented NUDT7.

{"compound": "NC(=O)c1ccccc1NC(=O)CCl", "NUDT7": 0}
{"compound": "C=CC(=O)Nc1cccc(C#N)c1", "NUDT7": 0}
{"compound": "O=C(CCl)Nc1ccc(Br)cc1F", "NUDT7": 0.17}
{"compound": "C=CC(=O)NC1CCc2cnn(C(C)C)c2C1 (stereo not drawn)", "NUDT7": 0}
{"compound": "O=C(CCl)Nc1ccc(Br)cn1", "NUDT7": 0}
{"compound": "O=C(CCl)Nc1ccc([N+](=O)[O-])cc1Br", "NUDT7": 0.24}
